# System: XIP peptide (Xip251-270) binding
# Protocol Description: small-molecule binders of XIP peptide, primary screen, biochemical, small-molecule microarray, fluorescence 635/667 nm, 0.1 µg/mL protein (AID 1182)
# Condition Details: fluorescent protein binding, 635 nm, higher = more signal, called active from +8 up or from −8 down
Quick rule for you: composite z-score at -0.1 or higher means 1 (yes), lower means 0 (no).

Solved entries:
Molecule	Classification
COC(=O)C(CC#Cc1ccc2c(c1)[C@]1(C(=O)N2)[C@H](C(N)=O)[C@H]2C(=O)O[C@H](c3ccccc3)[C@H](c3ccccc3)N2[C@@H]1c1ccccc1OCCO)C(=O)OC	1 (yes)
[N-]=[N+]=Nc1ccccc1C[C@]1(C(=O)N2CCCCC2)N=C(c2ccc(OCCCO)cc2)O[C@H]1c1ccccc1	1 (yes)
O=C/C=C/c1ccc(-c2ccccc2)cc1	0 (no)

Does the molecule `CN(C)C(=O)[C@]1(CCS(=O)(=O)c2ccccc2)N=C(c2ccc(OCCCO)cc2)O[C@@H]1c1ccccc1CN=[N+]=[N-]` have recorded composite z-score that is -0.1 or more?
1 (yes)

Next: CC(C)c1ccc(NN2C(C(O)c3ccccc3)C=CC3C(=O)N(c4ccccc4)C(=O)C32)cc1 (stereo not drawn)
1 (yes)

Next: `O=C1c2ccccc2[C@@]2(Cc3ccccc3N(CC(F)(F)F)C2=O)[C@H](c2ccc(CO)cc2)N1Cc1ccccc1`
0 (no)

Next: `C[C@]1(C(=O)NC2CC2)c2ccccc2C(=O)N(Cc2cc(F)cc(C(F)(F)F)c2)[C@H]1c1ccc(CO)cc1`
1 (yes)
